Assignment: determine reported pIC50 for the given molecules.
target: Somatostatin receptor type 2 (Homo sapiens); assay: Agonist activity at human SST2 expressed in CHO cells assessed as inhibition of forskolin-stimulated cAMP release after 40 mins by luminescence assay
# log scale: pIC50 equals minus log10 of the concentration in mol/L

[Q] Recorded pIC50 for Cc1cc(C)cc(-c2cnc3cc(Cl)c(-c4ccc(Cl)nc4)cc3c2OCC[C@H]2CCCCN2)c1 with Somatostatin receptor type 2 (Homo sapiens), please?
[A] 7.96

[Q] Recorded pIC50 for Cc1cc(C)cc(-c2cnc3cc(Cl)c(-c4cccnc4)cc3c2OCC[C@H]2CCCCN2)c1 with Somatostatin receptor type 2 (Homo sapiens), please?
[A] 8.08

[Q] Recorded pIC50 for Cc1cc(C)cc(-c2cnc3cc(Cl)c(-c4cccc(C(N)=O)c4)cc3c2OCC[C@H]2CCCCN2)c1 with Somatostatin receptor type 2 (Homo sapiens), please?
[A] 9.41

[Q] Recorded pIC50 for Cc1cc(C)cc(-c2cnc3cc(Cl)c(-c4cccc(O)c4)cc3c2OCC[C@H]2CCCCN2)c1 with Somatostatin receptor type 2 (Homo sapiens), please?
[A] 8.96

---

assay: Oral bioavailability in rat at 2 mg/kg, iv and 5 mg/kg, po; type: ADME, organism-based; conditions: in vivo
Endpoint name: bioavailability

[Q] Form field: reported bioavailability of Cc1cc(C)cc(-c2cnc3cc(Cl)c(-c4cccc(O)c4)cc3c2OCCCN)c1
[A] 17%

---

Assignment: determine reported log10(Ki) for the given molecules.
target: Somatostatin receptor type 2 (Homo sapiens, UniProt P30874)
Sequence (P30874 whole entry): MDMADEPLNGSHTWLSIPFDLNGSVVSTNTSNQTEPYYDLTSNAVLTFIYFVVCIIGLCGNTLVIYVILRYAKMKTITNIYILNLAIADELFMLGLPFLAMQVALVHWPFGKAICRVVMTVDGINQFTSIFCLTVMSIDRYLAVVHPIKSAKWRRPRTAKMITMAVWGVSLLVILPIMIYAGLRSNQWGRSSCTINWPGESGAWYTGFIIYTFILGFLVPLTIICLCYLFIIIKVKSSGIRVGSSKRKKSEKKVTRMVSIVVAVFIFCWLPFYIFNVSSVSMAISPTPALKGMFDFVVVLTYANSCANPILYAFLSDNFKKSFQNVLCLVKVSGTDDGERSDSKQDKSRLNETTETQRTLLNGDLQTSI
All values: log10 Ki [nM].

[Q] Form field: reported log10(Ki) of Cc1cc(C)cc(-c2cnc3cc(Cl)c(-c4ccncc4)cc3c2OCC[C@H]2CCCCN2)c1
[A] -0.96

[Q] Form field: reported log10(Ki) of Cc1cc(C)cc(-c2c(OCCC3CCCCN3)c3cc(-c4ccncn4)c(Cl)cc3[nH]c2=O)c1 (centres undefined)
[A] 3.15

[Q] Form field: reported log10(Ki) of Cc1cc(C)cc(-c2cnc3cc(Cl)c(-c4ccc(F)nc4)cc3c2OCC[C@H]2CCCCN2)c1
[A] -0.92

[Q] Form field: reported log10(Ki) of Cc1cc(C)cc(-c2cnc3cc(Cl)c(-c4cccc(O)c4)cc3c2OCC[C@H]2CCCCN2)c1
[A] -1.43

[Q] Form field: reported log10(Ki) of Cc1cc(C)cc(-c2cnc3cc(Cl)c(-c4cccnc4)cc3c2OCC[C@H]2CCCCN2)c1
[A] -0.89

[Q] Form field: reported log10(Ki) of Cc1cc(C)cc(-c2cnc3cc(Cl)c(-c4ccc(N)nc4)cc3c2OCC[C@H]2CCCCN2)c1
[A] -0.22

[Q] Form field: reported log10(Ki) of Cc1cc(C)cc(-c2cnc3cc(Cl)c(-c4cccc(O)c4)cc3c2OCCCN)c1
[A] -1.60

[Q] Form field: reported log10(Ki) of Cc1cc(C)cc(-c2cnc3cc(Cl)c(-c4ccc(O)cc4)cc3c2OCC[C@H]2CCCCN2)c1
[A] -1.10

[Q] Form field: reported log10(Ki) of Cc1cc(C)cc(-c2cnc3cc(Cl)c(-c4cccc(C(N)=O)c4)cc3c2OCC[C@H]2CCCCN2)c1
[A] -1.42

---

test: Half life in dog at 2 mg/kg, iv and 10 mg/kg, po; format: ADME, organism-based, Canis lupus familiaris; settings: in vivo
Endpoint name: half-life (min)
Lab book: enter the figure in min, no units written.

[Q] Form field: reported half-life of Cc1cc(C)cc(-c2cnc3cc(Cl)c(-c4ccc(=O)[nH]c4)cc3c2OCC[C@H]2CCCCN2)c1
[A] 33
